- target of assay: VIPR2 (Homo sapiens)
- Sequence (P41587 24-438): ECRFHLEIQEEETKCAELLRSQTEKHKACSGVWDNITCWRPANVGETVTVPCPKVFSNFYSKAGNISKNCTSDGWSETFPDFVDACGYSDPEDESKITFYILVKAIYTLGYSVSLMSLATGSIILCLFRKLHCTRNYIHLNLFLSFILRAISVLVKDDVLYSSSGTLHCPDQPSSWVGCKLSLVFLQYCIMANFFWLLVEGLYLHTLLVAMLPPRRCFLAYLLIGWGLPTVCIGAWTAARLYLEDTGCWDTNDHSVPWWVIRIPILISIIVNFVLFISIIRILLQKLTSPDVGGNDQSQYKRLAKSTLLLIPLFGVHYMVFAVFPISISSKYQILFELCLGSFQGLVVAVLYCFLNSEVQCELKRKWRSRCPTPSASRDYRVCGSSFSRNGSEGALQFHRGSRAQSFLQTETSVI
- procedure details: % Activity: inhibition of VIP-induced cAMP elevation and β-arrestin recruitment (Table 2)
- Format: cell-based
- Set-up: expressed in transfected cells; host or cells: HEK293 cells transfected with VIPR2 in pCDNA3.1 (as described)
observable: % Activity (%)

COc1cc(C(=O)NC[C@@H](O)C[C@@H](Cc2ccccc2)C(=O)N[C@H]2c3ccccc3C[C@H]2O)cc(OC)c1OC : 13.65

A. Nc1ccc(S(=O)(=O)NC[C@@H](O)C[C@@H](Cc2ccccc2)C(=O)N[C@H]2c3ccccc3C[C@H]2O)cc1
B. O=C([C@H](Cc1ccccc1)C[C@H](O)CNS(=O)(=O)c1ccc([N+](=O)[O-])cc1)N1CCCCC1 [Compound B18A]
-- ask Of A and B , which carries the smaller reported % Activity figure? Please identify the chosen entry by its label.
-- reply B

A. CCN(CC)C(=O)c1ccc(S(=O)(=O)NC[C@@H](O)C[C@@H](Cc2ccccc2)C(=O)N[C@H]2c3ccccc3C[C@H]2O)cc1
B. CC(=O)Nc1ccc(S(=O)(=O)NC[C@H](C[C@@H](Cc2ccccc2)C(=O)N[C@H]2c3ccccc3C[C@H]2O)OC(C)=O)cc1
-- ask // pick larger % Activity from pair: A vs B Please identify the chosen entry by its label.
-- reply A
(A: 15.3%, B: 6.75%)
